- System: Cullin-3 (CUL3) neddylation
- methodDescription: AlphaLISA assay for Cullin-3 (CUL3) neddylation in TF 1 cells
- Assay type: cell-based
- settings: Homo sapiens, TF-1, 3 h, 3 hours treatment
pIC50: −log10 of the molar value.

compound: CCN1C(=O)[C@@H](NC(=O)c2cccc(C(F)(F)F)c2)[C@@H](c2ccc(F)cn2)c2c(C(=O)N3CCC[C@H]3C#N)nn(-c3ccccc3)c21 (mixture of isomers) [Compound I-409]
subjectOfTest: Cullin-3 (CUL3) neddylation
pIC50: 6.00 to 7.00
//
compound: CCN1C(=O)[C@@H](NC(=O)c2cccc(C(F)(F)F)c2)[C@@H](c2ccc(F)cc2)c2c(C(=O)N(CC#N)C3CC3)nn(C3CCOCC3)c21 [Compound I-351]
subjectOfTest: Cullin-3 (CUL3) neddylation
pIC50: ≥ 7.00
//
compound: CCN1C(=O)[C@@H](NC(=O)c2cccc(C(F)(F)F)c2)[C@@H](C2CC2)c2c(C(=O)N3CS(=O)(=O)C[C@@H]3C#N)nn(-c3ccccc3)c21 [Compound I-521]
subjectOfTest: Cullin-3 (CUL3) neddylation
pIC50: ≥ 7.00
//
compound: C=C(CN(C)C1COC1)C(=O)NCc1nn(-c2ccccc2)c2c1[C@H](c1ccc(F)cc1)[C@H](NC(=O)c1cccc(C(F)(F)F)c1)C(=O)N2CC (racemic) [Compound I-102]
subjectOfTest: Cullin-3 (CUL3) neddylation
pIC50: ≥ 7.00
//
compound: C=C(CN1C2CCC1COC2)C(=O)NCc1nn(-c2ccccc2)c2c1[C@H](c1ccc(F)cc1)[C@H](NC(=O)c1cccc(C(F)(F)F)c1)C(=O)N2CC (mixture of isomers) [Compound I-613]
subjectOfTest: Cullin-3 (CUL3) neddylation
pIC50: ≥ 7.00
